system: OVCAR-5 ovarian; experiment: NCI-60 one-dose screen, 48 h (100 = growth as untreated, 0 = no growth, -100 = all killed); settings: 10 µM unless noted
About 83,000 compounds went through this panel and 20% of them were active in at least one assay; those are over-represented in the sample as a whole.
recordedEndpoint: growth (%)
Supply the numeric figure in %, leaving out any unit text.

Consider the reported growth for these molecules:
COc1ccc(/C=C2\SC(=O)N(CN3CCN(c4cc5c(cc4F)c(=O)c(C(=O)O)cn5C4CC4)CC3)C2=O)cc1    108
O=C1C=CC(=O)N1CCCCCCCCCCN1C(=O)C=CC1=O    103
CCN(CC)c1ccc2c(c1)OS(=O)(=O)N=C2    99.9
Oc1ccc(Cl)cc1CNc1nc2ccccc2[nH]1    98.9
C=C(C)CCCC(C)CC#N (stereo not given)    103
N#Cc1ccc(C(F)(F)F)nc1N1CCC(C(=O)Nc2ccc(Cl)cc2)CC1    76.9
CN1CCN(C)c2cncc(Br)c2C1=O    104
CCN1CCN(c2ccc(Nc3ncc4ccc5ncn(C(C)C)c5c4n3)nc2)CC1    4.92

For the record CNc1ccc(Br)cc1-c1n[nH]c(=O)[nH]c1=O , what value of growth is listed for OVCAR-5 ovarian?
98.3

Param item: CCC(C)Oc1cc(/C=N/NC(=O)c2cnn3c2NC(c2ccccc2)C3)ccc1OC (stereo not given)
61.3

Param item: CCN1C(=O)C2(Nc3ccccc3S2)c2cc(C)ccc21 (stereo not given)
91.8

Param item: COc1ccc(/C=N/OCC(O)CNCc2ccccc2)cc1OC1CCCC1 (stereo not given)
101

Param item: O=c1c2c(=NCCN3CCCC3)cc3c(=O)n(CCCN4CCOCC4)c(=O)c4ccc(c(O)n1CCCN1CCOCC1)c2c4-3
-10.9

* * *

test system: HT29 colon; assay: NCI-60 one-dose screen, 48 h (100 = growth as untreated, 0 = no growth, -100 = all killed); settings: 10 µM unless noted
Compounds without any hit were thinned out: in the full panel of roughly 83,000, 20% have a hit. The source made the active and inactive calls. Rule for the calls: active = growth percent below 10; inactive = the rest.
Consider the following compounds and their measured growth readings.

Consider the reported growth for these compounds:
CCN(c1ccc(C(=O)N2CCN(c3ccccc3)CC2)cc1)S(C)(=O)=O    97.7% (inactive)
Cc1ccc(S(=O)(=O)c2ccc3[nH]c(=O)[nH]c(=O)c3c2)cc1    107% (inactive)
CCCCCCCC/C=C\CCCCCCCCOc1cccc(CC(=O)NCC[N+](C)(C)C)c1    48.3% (inactive)
COc1cccc(C2CC(=O)Nc3cc4c(cc32)CCC4)c1OC (stereo unspecified)    9.41% (active)
Brc1ccc(SCN(CSc2ccc(Br)cc2)Cc2ccccc2)cc1    78.9% (inactive)
O=C(NCc1cccnc1)c1ccc([N+](=O)[O-])o1    -68.5% (active)
CCCCCCCCCCCCSC1=CC(=O)C=CC1=O    94.7% (inactive)
CC1=C(C/C=C(\C)CCC[C@H](C)CCC[C@H](C)CCCC(C)C)C(=O)c2ccccc2C1=O    105% (inactive)

Which growth value is on record for O=C1/C(=C/c2ccccc2F)CNC/C1=C\c1ccccc1F ?
-35.4% (active)

Param item: Cc1nc2cc(Nc3nc(Nc4ccc(F)cc4)nc(N4CCN(C)CC4)n3)ccc2n1Cc1ccccc1
-51.9% (active)

Param item: O=C(N/N=C(\CS(=O)(=O)c1ccccc1)c1cc2cc(Br)ccc2oc1=O)c1ccccc1
103% (inactive)

Param item: Cn1c2ccc(Cl)cc2c2nn(C(=O)c3ccccc3)c(=O)nc21
108% (inactive)

Param item: C[C@H]1C(=O)C23CCC1C[C@@]21O[C@@H]2C(C)(C)C=CC(=O)C23COC1=O
110% (inactive)

Param item: CC(=O)Nc1ccc(S(=O)(=O)N/N=C\c2ccc(Cl)c(Cl)c2)cc1
102% (inactive)

Param item: O=c1c2cc(F)ccc2oc2c(NCCNCCO)nc3ccccc3c12
16.7% (inactive)

Param item: Cc1ccc(C2SCC(=O)N2NC(=O)c2[nH]c3ccc(F)cc3c2-c2ccccc2)cc1 (stereo unspecified)
74.4% (inactive)

* * *

Tested on: MCF7 breast
Test: NCI-60 one-dose screen, 48 h
Settings: 10 µM unless noted
Procedure: Growth inhibition of the MCF7 human tumor cell line is measured as a screen for anti-cancer activity. Cells are grown in 96 well plates and exposed to the test compound for 48 hours. Compounds are tested at a single concentration, which is 10^-5 M for most compounds. The reported endpoint is percent growth (GI% or GIPRCNT), where numbers from 0 - 100% represent growth inhibition, and numbers from -100% - 0 represent cell death. For example, a value of 40 represents 60% growth inhibition. […]
This is part of a sample that, as a whole, favours compounds with a hit. Of some 83,000 tested, about 20% had one in any assay. Activity calls are given as the source filed them. How the source made its calls: active means growth percent below 10; inactive means the rest.
Lab note: assign the record to one of YES = active, NO = inactive

Example results:
CCCOC(=O)c1ccc2c(c1)[N+](=O)C(C(=O)c1ccccc1)=C(C(F)(F)F)[N+]2=O    YES
COc1ccc(-c2c3c(N)c4c(nc3nc3c2c(C)nn3-c2ccccc2)CCCCC4)cc1    NO
Cc1nc2cc(Nc3nc(Cl)nc(Nc4ccc(F)cc4)n3)ccc2n1Cc1ccccc1    NO

For this molecule, state the assay outcome: CC(=O)OC[C@H](O)[C@@]1(O)CC[C@H]2[C@@H]3CCC4=CC(=O)CC[C@]4(C)[C@H]3[C@@H](O)C[C@@]21C
NO

Param item: CC1SC(c2ccc(Cl)cc2)N(CCc2cccs2)C1=O (centres undefined)
YES

* * *

Consider the following compounds and their measured growth readings.
test system: CCRF-CEM leukemia; test: NCI-60 one-dose screen, 48 h (100 = growth as untreated, 0 = no growth, -100 = all killed); details: 10 µM unless noted
This is part of a sample that, as a whole, favours compounds with a hit. Of some 83,000 tested, about 20% had one in any assay. Activity calls are given as the source filed them. Rule for the calls: active = growth percent below 10; inactive = the rest.

FC(F)(F)c1cc(CNc2nc(Cl)ncc2Br)cc(C(F)(F)F)c1    81.4% (inactive)
COc1ncc(F)c(OC)n1    100% (inactive)
COc1cc(-c2nc(Nc3nc4ccccc4[nH]3)nc(N)c2C#N)cc(OC)c1OC    70.1% (inactive)
O=C(O)c1ccccc1Oc1cc(-c2ccco2)nc(OCCBr)n1    87.1% (inactive)
O=C1CCC(N2C(=O)c3cccc(NCCOCCOCCNC(=O)c4cc5c(o4)C(=O)c4ccccc4C5=O)c3C2=O)C(=O)N1 (configuration not stated)    14.5% (inactive)
CC(C)(C)[Si](C)(C)OC1[C@@H](COC(=O)NC(=O)CCl)O[C@@H](n2cnc3c(N)ncnc32)[C@H]1O[Si](C)(C)C(C)(C)C (some centres not stated)    -48.6% (active)
Cn1cc(C(=O)NCCC(=N)N)cc1NC(=O)CN=C(N)N    100% (inactive)
CS(=O)(=O)Nc1cccc(C(=O)NCc2ccc(N3CCOCC3)cc2)c1    99.8% (inactive)
Cc1ccc(N=c2nc3sc4c(C)ccc(C)c4n3c(N)c2C#N)cc1    85% (inactive)
Cc1ccc(-c2c3c(N)c4c(nc3nc3c2c(C)nn3-c2ccccc2)CCCC4)cc1    82.7% (inactive)

Which growth value is on record for CCCCCCCC/C=C\CCCCCCCCOc1cccc(CC(=O)NCC[N+]2(C)CCOCC2)c1 ?
61.6% (inactive)

Param item: COc1cc(Cn2cc(F)c(=O)[nH]c2=O)cc(OC)c1
103% [50 µM] (inactive)

Param item: CCCC1=NNC(=O)C1
100% (inactive)

Param item: Cc1nn(CC(=O)O)c2c1C(=O)CC(C)(C)C2
99.6% (inactive)

Param item: Cc1nc2cc(Nc3nc(Nc4ccc(F)cc4)nc(-c4ccc(Cl)cc4)n3)ccc2n1Cc1ccccc1
3.88% (active)

Param item: c1ccc(-c2n(Cc3ccc4ccccc4n3)c3ccccc3[n+]2Cc2ccc3ccccc3n2)cc1
12.5% (inactive)

Param item: O=C(NC1CC1)c1cc2n(n1)CC(c1ccccc1)N2 (configuration not stated)
108% (inactive)

* * *

test system: MDA-MB-435 melanoma; assay: NCI-60 one-dose screen, 48 h (100 = growth as untreated, 0 = no growth, -100 = all killed); settings: 10 µM unless noted
This is part of a sample that, as a whole, favours compounds with a hit. Of some 83,000 tested, about 20% had one in any assay. The source made the active and inactive calls. The calls were made as follows: active = growth percent below 10; inactive = the rest.
Consider the following compounds and their measured growth readings.

COc1cc(-c2ccc3cc(OC)c(OC)c(OC)c3c2)cc(OC)c1OC    -16.7% (active)
CC1SC(c2ccc(Cl)cc2)N(CCc2cccs2)C1=O (stereo not drawn)    -37.4% (active)
Nc1ccccc1-c1n[nH]c(=O)[nH]c1=O    100% (inactive)
CCN1C(=O)C2(Nc3ccccc3S2)c2cc(C)ccc21 (stereo not drawn)    102% (inactive)
Nc1cc(Br)c(-c2nnc(CCC(=O)c3nc4ccccc4[nH]3)o2)c(Br)c1    5.71% (active)

Which growth value is on record for Cc1cc(Cl)c2c(Cl)ccc(Cl)c2n1 ?
102% (inactive)

Param item: CCOC(=O)c1c(-c2cc(OC)c(OC)c(OC)c2)csc1N
-1.03% (active)

Param item: COc1cc2nc(N3CCC[C@H](NC4=CC(=O)c5ccccc5C4=O)C3)nc(N)c2cc1OC
-96.1% (active)

Param item: CSC1=CC(=O)c2ccccc2C1=O
89.4% (inactive)

Param item: O=C(CCc1nnc2sc(/C=C\c3ccccc3)nn12)c1nc2ccccc2[nH]1
83.8% (inactive)
